tested on: Rattus norvegicus; test: Minimum effective dose at which significant increase in uterine weight/body weight in rat was determined (in vivo); expressed as % increase relative to ovariectomized (OVX) controls; assay type: functional
# Increase per entry
Reported Property: Increase (%)

[[record]]
structure_string = "O=C(c1ccc(OCCN2CCCCC2)cc1)c1c(-c2ccc(-c3ccccc3)cc2)sc2cc(O)ccc12"
numeric_result = 50.3

[[record]]
structure_string = "C#Cc1ccc2c(C(=O)c3ccc(OCCN4CCCCC4)cc3)c(-c3ccc(O)cc3)sc2c1"
numeric_result = 27.8

[[record]]
structure_string = "CSc1ccc(-c2sc3cc(O)ccc3c2C(=O)c2ccc(OCCN3CCCCC3)cc2)cc1"
numeric_result = 50.2

[[record]]
structure_string = "COC(=O)c1ccc(-c2sc3cc(O)ccc3c2C(=O)c2ccc(OCCN3CCCCC3)cc2)cc1"
numeric_result = 37.2

[[record]]
structure_string = "Cl.O=C(c1ccc(OCCN2CCCCC2)cc1)c1c(-c2ccc(F)cc2)sc2cc(O)ccc12"
numeric_result = 50.2


---

target: Estrogen receptor (Homo sapiens, UniProt Q92731+P03372); conditions: mcf7
Reported Property: IC50 (nM)

[[record]]
structure_string = "O=C(c1ccc(OCCN2CCCCC2)cc1)c1c(-c2ccsc2)sc2cc(O)ccc12"
reading_unit = "nM"
numeric_result = 10

[[record]]
structure_string = "Cl.O=C(c1ccc(OCCN2CCCCC2)cc1)c1c(-c2ccc(O)cc2)sc2ccccc12"
reading_unit = "nM"
numeric_result = 35

[[record]]
structure_string = "O=C(c1ccc(OCCN2CCCCC2)cc1)c1c(-c2cc[n+]([O-])cc2)sc2cc(O)ccc12"
reading_unit = "nM"
numeric_result = 100


---

test system: Rattus norvegicus; test: Minimum effective dose at which significant increase in uterine weight/body weight in rat was determined (in vivo); assay type: functional; conditions: read-out: MED
Reported Property: minimal effective dose (mg/kg)

[[record]]
structure_string = "C#Cc1ccc(-c2sc3cc(O)ccc3c2C(=O)c2ccc(OCCN3CCCCC3)cc2)cc1"
reported_property = "minimal effective dose"
reading_unit = "mg/kg"
inequality_symbol = ">"
numeric_result = 10

[[record]]
structure_string = "O=C(c1ccc(OCCN2CCCCC2)cc1)c1c(-c2ccc(O)cc2)sc2ccc(O)cc12"
reported_property = "minimal effective dose"
reading_unit = "mg/kg"
inequality_symbol = ">"
numeric_result = 10

[[record]]
structure_string = "CC(C)c1sc2cc(O)ccc2c1C(=O)c1ccc(OCCN2CCCCC2)cc1"
reported_property = "minimal effective dose"
reading_unit = "mg/kg"
inequality_symbol = ">"
numeric_result = 10

[[record]]
structure_string = "O=C(c1ccc(OCCN2CCCCC2)cc1)c1c(-c2cccc3ccccc23)sc2cc(O)ccc12"
reported_property = "minimal effective dose"
reading_unit = "mg/kg"
inequality_symbol = ">"
numeric_result = 10

[[record]]
structure_string = "CC(C)c1ccc(-c2sc3cc(O)ccc3c2C(=O)c2ccc(OCCN3CCCCC3)cc2)cc1"
reported_property = "minimal effective dose"
reading_unit = "mg/kg"
inequality_symbol = "="
numeric_result = 0.1

[[record]]
structure_string = "O=C(c1ccc(OCCN2CCCCC2)cc1)c1c(-c2cccc(O)c2)sc2cc(O)ccc12"
reported_property = "minimal effective dose"
reading_unit = "mg/kg"
inequality_symbol = ">"
numeric_result = 10

[[record]]
structure_string = "O=C(c1ccc(OCCN2CCCCC2)cc1)c1c(-c2ccncc2)sc2cc(O)ccc12"
reported_property = "minimal effective dose"
reading_unit = "mg/kg"
inequality_symbol = "="
numeric_result = 1

[[record]]
structure_string = "C=Cc1ccc(-c2sc3cc(O)ccc3c2C(=O)c2ccc(OCCN3CCCCC3)cc2)cc1"
reported_property = "minimal effective dose"
reading_unit = "mg/kg"
inequality_symbol = "="
numeric_result = 0.1

[[record]]
structure_string = "O=C(c1ccc(OCCN2CCCCC2)cc1)c1c(-c2ccc(O)cc2)sc2cc(O)c(F)cc12"
reported_property = "minimal effective dose"
reading_unit = "mg/kg"
inequality_symbol = ">"
numeric_result = 10

[[record]]
structure_string = "O=C(c1ccc(OCCN2CCCCC2)cc1)c1c(-c2cccc(F)c2)sc2cc(O)ccc12"
reported_property = "minimal effective dose"
reading_unit = "mg/kg"
inequality_symbol = "="
numeric_result = 0.1

[[record]]
structure_string = "COC(=O)c1ccc2c(C(=O)c3ccc(OCCN4CCCCC4)cc3)c(-c3ccc(O)cc3)sc2c1.Cl"
reported_property = "minimal effective dose"
reading_unit = "mg/kg"
inequality_symbol = "="
numeric_result = 0.1

[[record]]
structure_string = "CCc1ccc(-c2sc3cc(O)ccc3c2C(=O)c2ccc(OCCN3CCCCC3)cc2)cc1"
reported_property = "minimal effective dose"
reading_unit = "mg/kg"
inequality_symbol = "="
numeric_result = 10

[[record]]
structure_string = "O=C(O)c1ccc2c(C(=O)c3ccc(OCCN4CCCCC4)cc3)c(-c3ccc(O)cc3)sc2c1"
reported_property = "minimal effective dose"
reading_unit = "mg/kg"
inequality_symbol = "="
numeric_result = 1

[[record]]
structure_string = "Cc1ccccc1-c1sc2cc(O)ccc2c1C(=O)c1ccc(OCCN2CCCCC2)cc1"
reported_property = "minimal effective dose"
reading_unit = "mg/kg"
inequality_symbol = "="
numeric_result = 10

[[record]]
structure_string = "Cc1ccc2c(C(=O)c3ccc(OCCN4CCCCC4)cc3)c(-c3ccc(O)cc3)sc2c1.Cl"
reported_property = "minimal effective dose"
reading_unit = "mg/kg"
inequality_symbol = "="
numeric_result = 1

[[record]]
structure_string = "COC(=O)c1ccc(-c2sc3cc(O)ccc3c2C(=O)c2ccc(OCCN3CCCCC3)cc2)cc1"
reported_property = "minimal effective dose"
reading_unit = "mg/kg"
inequality_symbol = "="
numeric_result = 1

[[record]]
structure_string = "O=C(c1ccc(OCCN2CCCCC2)cc1)c1c(C2CCCC2)sc2cc(O)ccc12"
reported_property = "minimal effective dose"
reading_unit = "mg/kg"
inequality_symbol = ">"
numeric_result = 10

[[record]]
structure_string = "CSc1ccc(-c2sc3cc(O)ccc3c2C(=O)c2ccc(OCCN3CCCCC3)cc2)cc1"
reported_property = "minimal effective dose"
reading_unit = "mg/kg"
inequality_symbol = "="
numeric_result = 1

[[record]]
structure_string = "Cc1cc2c(C(=O)c3ccc(OCCN4CCCCC4)cc3)c(-c3ccc(O)cc3)sc2cc1O"
reported_property = "minimal effective dose"
reading_unit = "mg/kg"
inequality_symbol = ">"
numeric_result = 10

[[record]]
structure_string = "COc1ccc(-c2sc3cc(O)ccc3c2C(=O)c2ccc(OCCN3CCCCC3)cc2)cc1"
reported_property = "minimal effective dose"
reading_unit = "mg/kg"
inequality_symbol = ">"
numeric_result = 10

[[record]]
structure_string = "COc1cc(O)ccc1-c1sc2cc(O)ccc2c1C(=O)c1ccc(OCCN2CCCCC2)cc1"
reported_property = "minimal effective dose"
reading_unit = "mg/kg"
inequality_symbol = "="
numeric_result = 0.1

[[record]]
structure_string = "O=C(c1ccc(OCCN2CCCCC2)cc1)c1c(-c2ccc(O)c(Cl)c2)sc2cc(O)ccc12"
reported_property = "minimal effective dose"
reading_unit = "mg/kg"
inequality_symbol = "="
numeric_result = 10

[[record]]
structure_string = "Cc1sc2cc(O)ccc2c1C(=O)c1ccc(OCCN2CCCCC2)cc1"
reported_property = "minimal effective dose"
reading_unit = "mg/kg"
inequality_symbol = ">"
numeric_result = 10

[[record]]
structure_string = "Cl.O=C(c1ccc(OCCN2CCCCC2)cc1)c1c(-c2ccccc2)sc2ccccc12"
reported_property = "minimal effective dose"
reading_unit = "mg/kg"
inequality_symbol = "="
numeric_result = 0.1

[[record]]
structure_string = "O=C(c1ccc(OCCN2CCCCC2)cc1)c1c(-c2ccc(-c3ccccc3)cc2)sc2cc(O)ccc12"
reported_property = "minimal effective dose"
reading_unit = "mg/kg"
inequality_symbol = "="
numeric_result = 0.1


---

# maps each entry to its Decrease
tested on: Rattus norvegicus; experiment: Percent decrease in serum cholesterol relative to OVX control at 0.1 mg/kg in rats; format: functional
Reported Property: Decrease (%)

[[record]]
structure_string = "O=C(c1ccc(OCCN2CCCCC2)cc1)c1c(-c2cc[n+]([O-])cc2)sc2cc(O)ccc12"
reported_property = "Decrease"
numeric_result = -16.6

[[record]]
structure_string = "O=C(c1ccc(OCCN2CCCCC2)cc1)c1c(-c2cccc3ccccc23)sc2cc(O)ccc12"
reported_property = "Decrease"
numeric_result = 40.1

[[record]]
structure_string = "O=C(c1ccc(OCCN2CCCCC2)cc1)c1c2ccc(O)cc2sc1[C@H]1CC[C@H](O)CC1"
reported_property = "Decrease"
numeric_result = 48.7


---

target: Estrogen receptor (Homo sapiens, UniProt Q92731+P03372); conditions: mcf7
Checkbox rule: IC50 lower than 100 nM = Satisfied; IC50 not lower than 100 nM = Not satisfied.

[[record]]
structure_string = "O=C(c1ccc(OCCN2CCCCC2)cc1)c1c(-c2ccccc2O)sc2cc(O)ccc12"
group = "Satisfied"

[[record]]
structure_string = "NC(=O)c1ccc2c(C(=O)c3ccc(OCCN4CCCCC4)cc3)c(-c3ccc(O)cc3)sc2c1"
group = "Not satisfied"

[[record]]
structure_string = "Cc1ccc(-c2sc3cc(O)ccc3c2C(=O)c2ccc(OCCN3CCCCC3)cc2)cc1.Cl"
group = "Satisfied"

[[record]]
structure_string = "COc1ccc2c(C(=O)c3ccc(OCCN4CCCCC4)cc3)c(-c3ccccc3)sc2c1"
group = "Not satisfied"

[[record]]
structure_string = "Cc1cc2c(C(=O)c3ccc(OCCN4CCCCC4)cc3)c(-c3ccc(O)cc3)sc2c(C)c1O"
group = "Not satisfied"

[[record]]
structure_string = "COc1ccc2c(C(=O)c3ccc(OCCN4CCCCC4)cc3)c(-c3ccc(O)cc3)sc2c1"
group = "Not satisfied"

[[record]]
structure_string = "O=C(c1ccc(OCCN2CCCCC2)cc1)c1c(-c2ccc(O)c3ccccc23)sc2cc(O)ccc12"
group = "Satisfied"

[[record]]
structure_string = "Cl.O=C(c1ccc(OCCN2CCCCC2)cc1)c1c(-c2ccc(Cl)cc2)sc2cc(O)ccc12"
group = "Satisfied"

[[record]]
structure_string = "Cc1cc(O)ccc1-c1sc2cc(O)ccc2c1C(=O)c1ccc(OCCN2CCCCC2)cc1"
group = "Satisfied"

[[record]]
structure_string = "Cc1ccc2c(C(=O)c3ccc(OCCN4CCCCC4)cc3)c(-c3ccc(O)cc3)sc2c1.Cl"
group = "Not satisfied"

[[record]]
structure_string = "O=C(c1ccc(OCCN2CCCCC2)cc1)c1c(-c2ccc3ccccc3c2)sc2cc(O)ccc12"
group = "Satisfied"

[[record]]
structure_string = "CCCCc1ccc(-c2sc3cc(O)ccc3c2C(=O)c2ccc(OCCN3CCCCC3)cc2)cc1"
group = "Satisfied"

